Provenance of the data: patent US20260234276A1

TARGET SYSTEM: CCR8 SNAP-tag (human, UniProt P51685 1-355, SNAP-tag labelled with Lumi4-Terbium)
ASSAY OVERVIEW: cell-based or functional assay
Listed next: entries and their corresponding % of internalization at 1 µg/ml mAb (HTRF).
Your answer should be a number followed by the unit of measure.

// solved cases for % of internalization at 1 µg/ml mAb (HTRF) follow
BINDER	ASSAY VALUE
3-80 (antibody, human IgG1, kappa, V domains shown, humanized, human IgG1 kappa) VH: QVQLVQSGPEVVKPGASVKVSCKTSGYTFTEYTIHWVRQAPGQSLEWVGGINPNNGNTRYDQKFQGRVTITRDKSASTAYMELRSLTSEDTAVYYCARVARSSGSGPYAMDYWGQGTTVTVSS VL: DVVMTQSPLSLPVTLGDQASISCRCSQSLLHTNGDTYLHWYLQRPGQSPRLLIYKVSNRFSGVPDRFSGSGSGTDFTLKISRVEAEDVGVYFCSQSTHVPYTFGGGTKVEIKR	44%
3-81 (antibody, human IgG1, kappa, V domains shown, humanized, human IgG1 kappa) VH: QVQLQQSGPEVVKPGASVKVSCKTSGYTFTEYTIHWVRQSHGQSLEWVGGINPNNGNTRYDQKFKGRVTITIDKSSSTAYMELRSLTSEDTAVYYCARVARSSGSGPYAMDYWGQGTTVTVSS VL: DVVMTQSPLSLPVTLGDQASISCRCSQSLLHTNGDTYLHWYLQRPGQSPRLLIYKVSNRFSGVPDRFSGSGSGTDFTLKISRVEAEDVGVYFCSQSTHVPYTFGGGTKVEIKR	44%

Value of % of internalization at 1 µg/ml mAb (HTRF) reported for the binder Ref #3 (antibody, human IgG1, V domains shown) VH: QVQLVQSGAEVKKPGASVKVSCKASGYTFTSYYMHWVRQAPGQGLEWMGIINPSGGSTSYAQKFQGRVTMTRDTSTSTVYMELSSLRSEDTAVYYCARAVRNRFRFDYWGQGTLVTVSS VL: QSALTQPASVSGSPGQSITISCTGTSSDVGSYNLVSWYQQHPGKAPKLMIYEVSKRPSGVSNRFSGSKSGNTASLTISGLQAEDEADYYCSSYAGSSTFVVFGGGTKLTVL is 100%
